Where these numbers come from: ChEMBL document CHEMBL4513216

# reported INHIBITION; entries follow
System: Plasmodium berghei
PROTOCOL_SUMMARY: Screen against P. berghei liver stage (PbLuc), transformed with Luciferase, at 2uM
Type: functional, HepG2
REPORTED_CONDITIONS: tested at 2 uM
Out of some 68,000 compounds screened, about 2,700 (4%) showed an effect of 50% or more. The sample holds strong results, similar compounds and a random draw of the others, so the mix is not that of the screen.
Write it as a number; the unit % goes unstated.

Below, 5 molecules whose answers are already recorded.
- MOLECULE: "CCN(CC)c1ccc(NC(=O)NC(C)Cn2cccn2)cn1 (stereo not given)"
  UNIT_INFO: "%"
  INHIBITION: 52.3
- MOLECULE: "O=C(Nc1cnn(CCN2CCOCC2)c1)c1cc(F)ccc1F"
  UNIT_INFO: "%"
  INHIBITION: 53.03
- MOLECULE: "Oc1coc2cc(OC[C@@H]3CCCN4CCCC[C@H]34)ccc12"
  UNIT_INFO: "%"
  INHIBITION: -61.71
- MOLECULE: "CCC(C)C(=O)N(C)Cc1cc(F)ccc1N1CCC(OC)CC1 (stereo not given)"
  UNIT_INFO: "%"
  INHIBITION: 15.56
- MOLECULE: "O=C(NC1CC1)N1CCn2c(Cn3cccn3)cnc2C1"
  UNIT_INFO: "%"
  INHIBITION: 53.08

For the molecule `CCN(CC)C(=O)c1ccc(Cl)c(NC(=O)c2cnc(C)cn2)c1` , what INHIBITION is on record?
20.71

// INHIBITION lookup, key: `CN(C)C(=O)N1CCn2c(Cn3cccn3)cnc2C1`
25.4

Quick one: INHIBITION for CC(Cn1ccnc1)NC(=O)NCCN1CCCCCC1=O (stereo not given) ?
17.18

Any idea what INHIBITION was measured for `O=C(Nc1cnn(CCN2CCOCC2)c1)c1ccccc1O` ?
-12.48

Find the recorded INHIBITION belonging to `C[C@@H]1CN(Cc2ccco2)CCN1C(=O)Cc1ccccc1F` and report it.
50.68

Requested field: INHIBITION. Item: `O=C(c1ccoc1)N1CCc2ncc(Cn3cccn3)n2CC1`
50.17

Item `CCS(=O)(=O)c1cccc(C(=O)Nc2cccc3c2C(=O)N(C)C3=O)c1` has what recorded INHIBITION?
13.01

Give its INHIBITION value. Item: CC(Cn1cccn1)NC(=O)Nc1ccc(N(C)C)nc1 (stereo not given)
5.96

Which INHIBITION value is on record for `Cc1ccc(C(=O)N2CCc3ncc(Cn4cccn4)n3CC2)cn1` ?
16.43

Find the recorded INHIBITION belonging to `O=C(c1ccccc1-c1ccccc1)N1C[C@@H]2CNC[C@]2(C(=O)O)C1` and report it.
19.13

Looking for the measured INHIBITION of `O=C1OCCN1CCc1nc(-c2cc3c4c(c2)CC(=O)N4CCC3)cs1` , can you help?
78.51

So what does the record say about INHIBITION for `O=C(O)c1ccc2ccc(N3CCN(CC4CC4)CC3)n2c1` ?
57.95

I would be grateful if you could share the reported INHIBITION for `O=C(Nc1ccc(-c2ccccc2)cc1)N1C[C@@H]2CNC[C@]2(C(=O)O)C1` .
51.42

Requested field: INHIBITION. Item: `CC(C)CN1CCC(c2nnc(CN3CCCC3)n2C2CC2)CC1`
8.03

What value of measured INHIBITION is listed for `O=C(NCc1ccccc1)N1CCn2c(Cn3cccn3)cnc2C1` ?
6.33

###

Test system: Plasmodium berghei
PROTOCOL_SUMMARY: Screen against P. berghei liver stage (PbLuc), transformed with Luciferase, at 2uM
Assay type: functional, HepG2
REPORTED_CONDITIONS: tested at 2 uM
Among all 68,000 compounds or so, about 2,700 (4%) showed an effect of 50% or more. The sample holds strong results, similar compounds and a random draw of the others, so the mix is not that of the screen.
OUTCOME_MEASURE: INHIBITION (%)
Only the number, expressed in %, is required.

Some molecules with recorded INHIBITION:
- MOLECULE: "Cc1ncccc1OC1(C(=O)NCCc2ccccn2)CCNCC1"
  DATA_VALUE: 17.94
- MOLECULE: "Cc1ccccc1C(CC(=O)NCC(N)=O)c1ccccc1 (stereo unspecified)"
  DATA_VALUE: 57.59
- MOLECULE: "CCC[C@H]1CN(S(=O)(=O)c2c(C)noc2C)C[C@@H]1N"
  DATA_VALUE: 51.31
- MOLECULE: "c1ccc(-c2nc(CCNCc3cccnc3)co2)cc1"
  DATA_VALUE: 30.88
- MOLECULE: "Cc1nc(N2C[C@H]3CC[C@@H](C2)N3)nc2cc(S(C)(=O)=O)ccc12"
  DATA_VALUE: 77.42

Sample CC(=O)N(Cc1noc(C)n1)C1CCN(CC(=O)N(C)C2CC2)C1 (stereo unspecified) — what was its INHIBITION?
-3.97

Would you kindly share the measured INHIBITION for `Cc1ncccc1OC1(C(=O)NCCNc2ccccc2)CCNCC1` ?
-25.28

Could you tell me which INHIBITION is on file for Cc1nc(C2CCCN2C(=O)c2cc3c(s2)CCC3)no1 (stereo unspecified) ?
16.89

###

Test system: Plasmodium berghei
PROTOCOL_SUMMARY: Screen against P. berghei liver stage (PbLuc), transformed with Luciferase, at 2uM
Assay type: functional, HepG2
REPORTED_CONDITIONS: tested at 2 uM
Out of some 68,000 compounds screened, about 2,700 (4%) showed an effect of 50% or more. Only a selection was taken, and strong results are over-represented in it overall.
Mark Y for reported INHIBITION of 30% or greater; mark N for anything smaller.

For orientation, consider the following solved cases.
- MOLECULE: "O=C(NC1CCN(Cn2nc(-c3ccccc3)oc2=O)CC1)C1CC1"
  QUALITATIVE_LABEL: "N"
- MOLECULE: "CN(Cc1ccco1)C(=O)NCc1ccnc(SC(C)(C)C)c1"
  QUALITATIVE_LABEL: "Y"
- MOLECULE: "CN(Cc1ccco1)C(=O)NCc1nnc2n1CCC2"
  QUALITATIVE_LABEL: "N"

INHIBITION >= 30% for CC(C(=O)Nc1ccc(N2CCCCC2)nc1)n1ccnc1 (stereo unspecified) ?
N

Identify whether the reported INHIBITION of the following molecule is 30% or greater: `CCN1C[C@H]2[C@@H](C1)N(c1ncc(F)cn1)CC[C@H]2OC`
N

Is reported INHIBITION greater than or equal to 30% here: `Cc1csc(N2CCN(C(=O)NCCNc3ncccn3)CC2)n1`
N

Is INHIBITION at least 30%? Consider `CCNC(=O)NCCCn1nc2ccccn2c1=O`
N

Dear colleague, could you confirm whether `COC(=O)C1CCN(C(=O)Cn2ccc(-c3ccccc3)n2)CC1` has INHIBITION at or above 30%?
N

Reported INHIBITION reaches at least 30% for `NC(=O)CCn1cc(CNCc2csc(N)n2)c2ccccc21` ?
Y

Is INHIBITION at least 30%? Consider CCc1cnc(CN(C)C2CCN(CCc3cccs3)C2)o1 (stereo unspecified)
Y

Does `O=C(NCCO)C1(Cc2ccccc2-c2ccncc2)CCOCC1` have a reported INHIBITION of at least 30%?
N

Please tell me: is the molecule CC(C)NC(=O)N1CCN(CC2CC2)CC2(CC(=O)N(C)C2)C1 (stereo unspecified) at or over 30% in terms of INHIBITION?
Y

###

System: Plasmodium berghei
PROTOCOL_SUMMARY: Screen against P. berghei liver stage (PbLuc), transformed with Luciferase, at 2uM
Type: functional, HepG2
REPORTED_CONDITIONS: tested at 2 uM
Out of some 68,000 compounds screened, about 2,700 (4%) showed an effect of 50% or more. The entries come from a sample that favours strong results as a whole.
Each entry gets Criterion not met if its INHIBITION stays under 20%, and Criterion met if its INHIBITION is 20% or above.

- COMPOUND: "Nc1ncc(-c2csc(NC(=O)C[C@H]3COCCN3)n2)cn1"
  QUALITATIVE_LABEL: "Criterion met"
- COMPOUND: "Cc1cccc(-c2ccc(C(=O)NCC3CCCOC3)c(=O)[nH]2)c1 (stereo not drawn)"
  QUALITATIVE_LABEL: "Criterion not met"
- COMPOUND: "O=C(Cc1ccc2c(c1)OCCO2)NCCc1nnc2n1CCC2"
  QUALITATIVE_LABEL: "Criterion not met"

Hello, I need to know if `CC(C)Nc1ncc(-c2csc(NC(=O)C[C@H]3COCCN3)n2)cn1` has measured INHIBITION not below 20%. Thanks!
Criterion met
